Test system: SiHA cells
protocol-text: CellTiter-Glo in vitro cell proliferation assay, Example 8
Format: cell-based, Human
measurement-parameters: Cervical - SC, read-out: Mean IC50
Collected IC50 values appear next to each entry.
assay-readout: IC50 (µM)

COc1ccc2c3c([nH]c2c1)C(CC(CC1=NCCc2c1[nH]c1cc(OC)ccc21)c1ccc(OC)c(O)c1)=NCC3 ... 48.1
CCOc1cc(C(CC2=NCCc3c2[nH]c2cc(OC)ccc32)CC2=NCCc3c2[nH]c2cc(OC)ccc32)ccc1O ... 17.1
COc1ccc2c3c([nH]c2c1)C(CC(CC1=NCCc2c1[nH]c1cc(OC)ccc21)c1ccc(OC(C)=O)c(OC)c1)=NCC3 ... 74.8
COc1ccc2c3c([nH]c2c1)C(CC(CC1=NCCc2c1[nH]c1cc(OC)ccc21)C1CCCCC1)=NCC3 ... 17.8
COc1ccc2c3c([nH]c2c1)C(CC(CC1=NCCc2c1[nH]c1cc(OC)ccc21)c1cc(F)c(F)cc1F)=NCC3 ... 11.7
COc1ccc2c3c([nH]c2c1)C(CC(CC1=NCCc2c1[nH]c1cc(OC)ccc21)c1ccc(F)c(Oc2ccccc2)c1)=NCC3 ... 75.9
C=C(C)C1CC=C(C(CC2=NCCc3c2[nH]c2cc(OC)ccc32)CC2=NCCc3c2[nH]c2cc(OC)ccc32)CC1 (stereo not shown) ... 13.3
COc1ccc2c3c([nH]c2c1)C(CC(CC1=NCCc2c1[nH]c1cc(OC)ccc21)c1ccc(Cl)cc1)=NCC3 ... 11.6
COc1ccc2c3c([nH]c2c1)C(CC(CC1=NCCc2c1[nH]c1cc(OC)ccc21)c1cc(F)cc(F)c1)=NCC3 ... 11.7
COc1ccc2c3c([nH]c2c1)C(CC(CC1=NCCc2c1[nH]c1cc(OC)ccc21)c1cc(O)c(OC)c(OC)c1)=NCC3 ... 15.9
COc1ccc2c3c([nH]c2c1)C(CC(CC1=NCCc2c1[nH]c1cc(OC)ccc21)c1cccc(F)c1)=NCC3 ... 6.73
COc1ccc2c3c([nH]c2c1)C(CC(CC1=NCCc2c1[nH]c1cc(OC)ccc21)c1ccccc1OC)=NCC3 ... 9.44
COc1ccc2c3c([nH]c2c1)C(CC(CC1=NCCc2c1[nH]c1cc(OC)ccc21)c1ccc(F)cc1)=NCC3 ... 11.5
COc1ccc2c3c([nH]c2c1)C(CC(CC1=NCCc2c1[nH]c1cc(OC)ccc21)c1ccc(OC)c(O)c1I)=NCC3 ... 51.9
COc1cccc(C(CC2=NCCc3c2[nH]c2cc(OC)ccc32)CC2=NCCc3c2[nH]c2cc(OC)ccc32)c1 ... 12.3
COc1ccc2c3c([nH]c2c1)C(CC(CC1=NCCc2c1[nH]c1cc(OC)ccc21)c1ccc(C(C)C)cc1)=NCC3 ... 46.9
COc1ccc2c3c([nH]c2c1)C(CC(CC1=NCCc2c1[nH]c1cc(OC)ccc21)c1cc(OC)c(O)c([N+](=O)[O-])c1)=NCC3 ... 36.9
COc1ccc2c3c([nH]c2c1)C(CC(CC1=NCCc2c1[nH]c1cc(OC)ccc21)c1cc(Br)c(O)c(OC)c1)=NCC3 ... 50.2
COc1ccc2c3c([nH]c2c1)C(CC(CC1=NCCc2c1[nH]c1cc(OC)ccc21)c1ccc(OC)c(OC)c1)=NCC3 ... 17.1

Reference source for all entries: patent US12129265B2
